Where do the numbers come from? From PubChem BioAssay AID1963420.

# System: 494315-158-R-J1-PDC complex spheroid growth, percent test/control;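 also: compound exposure lasted seven days after spheroids formed for three days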
# PROTOCOL_DETAILS: Anticancer human tumor 494315-158-R-J1-PDC patient-derived soft tissue sarcoma cell line growth inhibition [Asc]
# CONDITION_SET: second compound 1 µM; first compound 0.1 µM; hits give low values
For each record, check the reported viability, T/C: if it is below 60% write Satisfied, else write Not satisfied.

# strict comparison: is reported viability, T/C < 60%? input = C#Cc1c(F)ccc2cc(O)cc(-c3ncc4c(N5CC6CCC(C5)N6)nc(OCC56CCCN5CC(F)C6)nc4c3F)c12 (configuration not stated) + Cc1c(S(C)(=O)=O)c(-c2cc(F)cc(N3CCN(c4ccc(NS(=O)(=O)c5ccc(NC(CCN6CCC(C(=O)OCCCP(=O)(O)O)CC6)CSc6ccccc6)c(S(=O)(=O)C(F)(F)F)c5)cc4)CC3)c2)c(-c2ccc(Cl)cc2)n1C(C)C Not satisfied

# strict comparison: is reported viability, T/C < 60%? input = C=CC(=O)N1CCN(c2nc(=O)n(-c3c(C)ccnc3C(C)C)c3nc(-c4c(O)cccc4F)c(F)cc23)C(C)C1 (configuration not stated) + Cc1c(S(C)(=O)=O)c(-c2cc(F)cc(N3CCN(c4ccc(NS(=O)(=O)c5ccc(NC(CCN6CCC(C(=O)OCCCP(=O)(O)O)CC6)CSc6ccccc6)c(S(=O)(=O)C(F)(F)F)c5)cc4)CC3)c2)c(-c2ccc(Cl)cc2)n1C(C)C Not satisfied

# strict comparison: is reported viability, T/C < 60%? input = O=C(c1cc(Cc2n[nH]c(=O)c3ccccc23)ccc1F)N1CCN(C(=O)C2CC2)CC1 + CNC(C)C(=O)NC1CN(S(=O)(=O)c2cccc(S(=O)(=O)N3CCC4CCC(C(=O)NC(c5ccccc5)c5ccccc5)N4C(=O)C(NC(=O)C(C)NC)C3)c2)CCC2CCC(C(=O)NC(c3ccccc3)c3ccccc3)N2C1=O Satisfied

# strict comparison: is reported viability, T/C < 60%? input = O=C(c1ccc(F)c(F)c1Nc1ccc(I)cc1F)N1CC(O)([C@@H]2CCCCN2)C1 + Cc1c(S(C)(=O)=O)c(-c2cc(F)cc(N3CCN(c4ccc(NS(=O)(=O)c5ccc(NC(CCN6CCC(C(=O)OCCCP(=O)(O)O)CC6)CSc6ccccc6)c(S(=O)(=O)C(F)(F)F)c5)cc4)CC3)c2)c(-c2ccc(Cl)cc2)n1C(C)C Not satisfied

# strict comparison: is reported viability, T/C < 60%? input = CCN1CCN(Cc2ccc(Nc3ncc(F)c(-c4cc(F)c5nc(C)n(C(C)C)c5c4)n3)nc2)CC1 + CNC(C)C(=O)NC1CN(S(=O)(=O)c2cccc(S(=O)(=O)N3CCC4CCC(C(=O)NC(c5ccccc5)c5ccccc5)N4C(=O)C(NC(=O)C(C)NC)C3)c2)CCC2CCC(C(=O)NC(c3ccccc3)c3ccccc3)N2C1=O Satisfied

# strict comparison: is reported viability, T/C < 60%? input = C=CC(=O)N1CCN(c2nc(=O)n(-c3c(C)ccnc3C(C)C)c3nc(-c4c(O)cccc4F)c(F)cc23)C(C)C1 (configuration not stated) + CNC(C)C(=O)NC1CN(S(=O)(=O)c2cccc(S(=O)(=O)N3CCC4CCC(C(=O)NC(c5ccccc5)c5ccccc5)N4C(=O)C(NC(=O)C(C)NC)C3)c2)CCC2CCC(C(=O)NC(c3ccccc3)c3ccccc3)N2C1=O Satisfied

# strict comparison: is reported viability, T/C < 60%? input = COc1c(OCCCN2CCOCC2)ccc2c3n(c(=NC(=O)c4cnc(N)nc4)nc12)CCN3 + CNC(C)C(=O)NC1CN(S(=O)(=O)c2cccc(S(=O)(=O)N3CCC4CCC(C(=O)NC(c5ccccc5)c5ccccc5)N4C(=O)C(NC(=O)C(C)NC)C3)c2)CCC2CCC(C(=O)NC(c3ccccc3)c3ccccc3)N2C1=O Satisfied
